Data provenance is paper PMC2173804.

system.name: GST-FKH (FKHRL1/FOXO3a DNA-binding domain) (UniProt O43524 141-268, S253A)
Sequence (O43524 141-268 S253A): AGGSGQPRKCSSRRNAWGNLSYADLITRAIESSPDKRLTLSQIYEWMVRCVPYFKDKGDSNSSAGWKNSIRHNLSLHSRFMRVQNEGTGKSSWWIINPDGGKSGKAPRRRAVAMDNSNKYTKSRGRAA
assay.procedure: EMSA
measure.name: binding result

# binder, observed
records = [
    ("bim1 (dsDNA) DNA 1: CTAGCTAGGGTAAACACGCCG DNA 2: CTAGCGGCGTGTTTACCCTAG", "binds"),
    ("mut1 (dsDNA) DNA 1: CTAGCTAGGGTACCCACGCCG DNA 2: CTAGCGGCGTGGGTACCCTAG", "no binding"),
    ("mut2 (dsDNA) DNA 1: CTAGGCAAGGTAAGTTCTCCT DNA 2: CTAGAGGAGAACTTACCTTGC", "no binding"),
    ("bim2 (dsDNA) DNA 1: CTAGGCAAGGTAAACACTCCT DNA 2: CTAGAGGAGTGTTTACCTTGC", "binds"),
]

Now for the binder whose binding result we want.
Please fill in: binding result reported for FasL (dsDNA) DNA 1: CTAGAATAAGTAAATAAATAA DNA 2: CTAGTTATTTATTTACTTATT = binds
